Target: UniProtKB P21802
Sequence (P21802 22-821): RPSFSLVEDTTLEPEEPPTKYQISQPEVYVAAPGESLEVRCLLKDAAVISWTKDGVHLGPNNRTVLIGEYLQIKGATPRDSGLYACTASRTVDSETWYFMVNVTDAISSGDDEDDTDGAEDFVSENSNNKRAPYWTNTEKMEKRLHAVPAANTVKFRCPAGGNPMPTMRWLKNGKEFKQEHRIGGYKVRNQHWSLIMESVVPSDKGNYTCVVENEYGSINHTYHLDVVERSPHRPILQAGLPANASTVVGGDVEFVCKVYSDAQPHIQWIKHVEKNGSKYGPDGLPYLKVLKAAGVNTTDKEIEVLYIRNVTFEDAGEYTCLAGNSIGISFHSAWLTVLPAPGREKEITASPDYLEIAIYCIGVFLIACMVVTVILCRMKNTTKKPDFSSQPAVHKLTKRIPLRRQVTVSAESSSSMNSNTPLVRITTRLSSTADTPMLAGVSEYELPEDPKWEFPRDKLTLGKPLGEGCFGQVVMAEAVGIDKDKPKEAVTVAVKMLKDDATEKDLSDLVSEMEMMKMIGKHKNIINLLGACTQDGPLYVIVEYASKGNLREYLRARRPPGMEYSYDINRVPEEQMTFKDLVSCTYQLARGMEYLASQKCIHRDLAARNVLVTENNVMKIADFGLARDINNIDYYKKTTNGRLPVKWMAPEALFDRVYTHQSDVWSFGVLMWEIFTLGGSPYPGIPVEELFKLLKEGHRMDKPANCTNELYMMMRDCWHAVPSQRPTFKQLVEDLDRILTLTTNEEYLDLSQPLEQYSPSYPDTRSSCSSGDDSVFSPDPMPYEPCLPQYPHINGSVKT
Experiment: Biochemical FGFR2 Caliper assay
measurement_label: IC50

Reference set, count: 5
CC#Cc1cnc(-c2c(-c3ccc(Oc4nccc(C)n4)c(F)c3)c3c(N)ncnc3n2C)c(C)n1 :: 250 to 1000 nM
C=C(C)C(=O)Nc1ccc(-c2c(-c3ccc(C(=O)NCC4CCC4)c(OC)c3)c3c(N)ncnc3n2C)cc1 :: 1000 to 100000 nM
C#Cc1cc(OC)c(-c2c(-c3ccc(Oc4nccc(C)n4)c(F)c3)c3c(C)ncnc3n2C)cn1 :: < 100 nM
C=C(C)C(=O)Nc1ccc(-c2c(-c3ccc(C(=O)N[C@H]4C[C@@H](F)C4)c(OC(F)F)c3)c3c(N)ncnc3n2C)cc1 :: 250 to 1000 nM
C=C(C)C(=O)Nc1ccc(-c2c(-c3ccc(-n4ccc(C)n4)nc3)c3c(N)ncnc3n2C)cc1 :: 250 to 1000 nM

Please find the next compound below.
Identify the measured IC50 of C=C(C)C(=O)Nc1ccc(-c2c(-c3cnn(-c4ccccc4)c3)c3c(N)ncnc3n2C)cc1 for UniProtKB P21802.
1000 to 100000 nM

Provenance of the data: patent US11780845B2
